# assayProtocol: Stability of the compound in stimulated […] fluid at pH 6.8 measured after 8 hrs
# Assay type: ADME
# protocolConditions: simulated intestinal fluid, read-out: Stability
quantityKind: remaining at 8 h (%)

[P] CC(C)C[C@H](NC(=O)CNC(=O)c1cc(Cl)ccc1Cl)B1OC2C3OC(CC3C(=O)O)C2(C)O1 (some centres undefined)
[Q] CC(C)C[C@H](NC(=O)CNC(=O)c1cc(Cl)ccc1Cl)B1OC2(C)CCC(C(=O)O)CC2(C)O1 (some centres undefined)
Compare reported remaining at 8 h values for P and Q . Which is lower? Give the chosen item's label as your response.
P
(P: 12.5%, Q: 85.7%)
